- Measured on: DNA polymerase lambda (Homo sapiens)
- Protocol: Inhibition of human recombinant full length DNA polymerase lambda TdT-like activity using [3H]dNTP as substrate after 10 mins by scintillation counting analysis
Measured attribute: ID50

{"Smiles data": "C/C=C/n1cc(/C=C/C(=O)CC(=O)C(=O)OCC)c2ccccc21", "ID50": "> 40 µM"}

# map each compound to its ID50
1. C/C=C/Cn1cc(/C=C/C(=O)CC(=O)C(=O)OCC)c2ccccc21
2. CCOC(=O)C(=O)CC(=O)/C=C/c1cc(C(=O)c2ccccc2F)c[nH]1
3. CCOC(=O)C(=O)CC(=O)/C=C/c1cn(Cc2ccc(F)cc2)c2ccccc12
4. C=C(C)Cn1cc(/C=C/C(=O)CC(=O)C(=O)OCC)c2ccccc21
5. CCOC(=O)C(=O)CC(=O)/C=C/c1cn(CCC(C)C)c2ccccc12
6. CCOC(=O)C(=O)CC(=O)/C=C/c1cc(C(=O)c2ccccc2)cn1Cc1ccc(F)cc1
7. O=C(/C=C/c1cn(Cc2ccc(O)cc2)c2ccccc12)CC(=O)C(=O)O
8. CCOC(=O)C(=O)CC(=O)/C=C/c1cn(Cc2ccc(OC)cc2)c2ccccc12

1: > 40 µM; 2: 27 µM; 3: > 40 µM; 4: > 40 µM; 5: > 40 µM; 6: > 40 µM; 7: > 40 µM; 8: > 40 µM

Quick request: ID50 for each listed item, please.
1. O=C(/C=C/c1cn(Cc2ccccc2)c2ccccc12)CC(=O)C(=O)O
2. CCOC(=O)C(=O)CC(=O)/C=C/c1cn(Cc2ccccc2)c2ccccc12

1. 1.7 µM
2. > 40 µM
